From: patent US20230183219A1

- target: Human M4 (Homo sapiens, UniProt P08173)
- Construct: Human or rat M4 cDNA, along with the chimeric G protein Gqi5, were transfected into Chinese hamster ovary (CHO-K1) cells; expressed in transfected cells; host or cells: CHO-K1 (Chinese hamster ovary, ATCC), stably co-expressing Gqi5
- Sequence (P08173 whole entry): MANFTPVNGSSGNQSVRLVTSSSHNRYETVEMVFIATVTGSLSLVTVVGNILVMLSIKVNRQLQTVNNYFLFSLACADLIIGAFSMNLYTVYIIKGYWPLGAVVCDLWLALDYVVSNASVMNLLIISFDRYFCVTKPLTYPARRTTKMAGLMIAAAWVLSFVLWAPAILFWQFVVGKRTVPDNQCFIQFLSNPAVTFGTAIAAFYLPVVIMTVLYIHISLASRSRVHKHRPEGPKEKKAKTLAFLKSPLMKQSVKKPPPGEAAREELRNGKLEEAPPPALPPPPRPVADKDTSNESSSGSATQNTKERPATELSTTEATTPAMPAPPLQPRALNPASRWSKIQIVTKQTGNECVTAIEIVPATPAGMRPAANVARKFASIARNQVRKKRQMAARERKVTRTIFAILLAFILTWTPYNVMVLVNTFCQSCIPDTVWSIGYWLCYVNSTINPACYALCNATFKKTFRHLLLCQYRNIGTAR
- assay_comment: mAChR M4 cell-based functional assay (calcium flux, decrease of EC80 acetylcholine response)
- cond: % ACh maximum at 30 μM; read-out: Human M4 Emin
I'd be grateful if you could share measured remaining activity at 30 µM for these entries.
// units = %; emit number, no label

Form: compound = "FC1(F)CCN(c2cc(C(F)(F)F)c(N[C@H]3C[C@@H]4CN(CC5CCOCC5)C[C@@H]4C3)nn2)C1" ; remaining activity at 30 µM = 2

Form: compound = "CCc1ccccc1-c1cc(C(F)(F)F)c(N[C@H]2C[C@@H]3CN(CC4CCOCC4)C[C@@H]3C2)nn1" ; remaining activity at 30 µM = 3

Form: compound = "CCOc1cc(F)c(-c2cc(C(F)(F)F)c(N[C@H]3C[C@@H]4CN(CC5CCOCC5)C[C@@H]4C3)nn2)cc1F" ; remaining activity at 30 µM = 3

Form: compound = "[2H]C([2H])(C1CCOCC1)N1C[C@H]2C[C@H](Nc3nnc(-c4ccc5c(c4)OCC5)cc3C(F)(F)F)C[C@H]2C1" ; remaining activity at 30 µM = 3

Form: compound = "Cc1cc(C)cc(-c2cc(C(F)(F)F)c(N[C@H]3C[C@@H]4CN(Cc5ccccn5)C[C@@H]4C3)nn2)c1" ; remaining activity at 30 µM = 3

Form: compound = "C[C@@H]1CCCN(c2cc(C(F)(F)F)c(N[C@H]3C[C@@H]4CN(CC5CCOCC5)C[C@@H]4C3)nn2)C1" ; remaining activity at 30 µM = 2

Form: compound = Cc1ccc(F)cc1-c1cc(C(F)(F)F)c(N[C@H]2C[C@@H]3CN(C[C@@H]4CC5CCC4O5)C[C@@H]3C2)nn1 (stereo partly shown) ; remaining activity at 30 µM = 3

Form: compound = "Cn1cc2cc(-c3cc(C#N)c(N[C@H]4C[C@@H]5CN(CC6(C#N)CC6)C[C@@H]5C4)nn3)ccc2n1" ; remaining activity at 30 µM = 6

Form: compound = "Cn1ccc2cc(-c3cc(C(F)(F)F)c(N[C@H]4C[C@@H]5CN(CC6CCOCC6)C[C@@H]5C4)nn3)ccc21" ; remaining activity at 30 µM = 4

Form: compound = "FC(F)(F)c1cc(N2CCOCC2)nnc1N[C@H]1C[C@@H]2CN(CC3CCOCC3)C[C@@H]2C1" ; remaining activity at 30 µM = 2

Form: compound = "Cn1cc(-c2cc(C(F)(F)F)c(N[C@H]3C[C@@H]4CN(CC5CCOCC5)C[C@@H]4C3)nn2)cn1" ; remaining activity at 30 µM = 3

Form: compound = "FC(F)(F)c1cc(-c2ccc3c(c2)CCO3)nnc1N[C@H]1C[C@@H]2CN(CC3CCOCC3)C[C@@H]2C1" ; remaining activity at 30 µM = 3

Form: compound = Cn1cc2cc(-c3cc(C(F)(F)F)c(N[C@H]4C[C@@H]5CN(CC6COCCO6)C[C@@H]5C4)nn3)ccc2n1 (stereo partly shown) ; remaining activity at 30 µM = 3
